# System: SARS-CoV-2
# Assay text: Antiviral activity against SARS-CoV-2 XBB.1 infected in African green monkey Vero E6 cells assessed as inhibition of virus induced cytopathic effect measured after 72 hrs by cytometric analysis
# Format: functional, organism-based
# Experimental conditions: Severe acute respiratory syndrome coronavirus 2, XBB.1, Vero C1008, 72 h
// EC50 lookup, one value per entry
Response body: numeric value in nM, unit text excluded.

Below, 10 compounds whose answers are already recorded.
Cn1cc2cc(/N=c3\[nH]c(=O)n(-c4cncc(O[C@H]5CCOC5)c4)c(=O)n3Cc3cc(F)c(F)cc3F)c(Cl)cc2n1 = 69.9
Cc1cncc(-n2c(=O)[nH]/c(=N\c3cc4cn(C)nc4cc3Cl)n(Cc3cc(Cl)c(F)c(Oc4ccc(F)cc4)c3)c2=O)c1 = 707
Cc1cncc(-n2c(=O)[nH]/c(=N\c3cc4cn(C)nc4cc3Cl)n(Cc3cc(C#N)ccc3Sc3ccc(Cl)s3)c2=O)c1 = 57.9
COCCOc1cncc(-n2c(=O)[nH]/c(=N\c3cc4cn(C)nc4cc3Cl)n(Cc3cc(C#N)ccc3C)c2=O)c1 = 13.7
Cn1cc2cc(/N=c3\[nH]c(=O)n(-c4cccnc4)c(=O)n3Cc3cc(F)c(F)cc3F)c(Cl)cc2n1 = 165
Cn1cnc(Cn2c(=O)[nH]/c(=N\c3cc4cn(C)nc4cc3Cl)n(Cc3cc(F)c(F)cc3F)c2=O)n1 = 52.3
Cn1cc2cc(/N=c3\[nH]c(=O)n(-c4cncc(O[C@H]5CCOC5)c4)c(=O)n3Cc3cc(Cl)c(F)cc3F)c(Cl)cc2n1 = 21.9
Cc1cncc(-n2c(=O)[nH]/c(=N\c3cc4cn(C)nc4cc3Cl)n(Cc3cc(Cl)c(F)cc3Sc3cccc(F)c3)c2=O)c1 = 336
COc1cncc(-n2c(=O)[nH]/c(=N\c3cc4cn(C)nc4cc3Cl)n(Cc3cc(Cl)c(F)cc3Oc3ccc(F)cc3)c2=O)c1 = 241
COCCOc1cncc(-n2c(=O)[nH]/c(=N\c3cc4cn(C)nc4cc3Cl)n(Cc3cc(Cl)c(F)cc3F)c2=O)c1 = 33.5

Ask | I'd like to know its EC50. The compound in question is Cc1cncc(-n2c(=O)[nH]/c(=N\c3cc4cn(C)nc4cc3Cl)n(Cc3cc(Cl)c(F)cc3Oc3ccc(C#N)c(F)c3)c2=O)c1
Reply | 33.4

Ask | Also need Cc1ccc(C#N)cc1Cn1c(=O)n(-c2cncc(SC3CC3)c2)c(=O)[nH]/c1=N\c1cc2cn(C)nc2cc1Cl , thanks.
Reply | 18.4

###

# Assay text: Apparent permeability across basolateral to apical side in human Caco-2 cells
// label = Y if Papp B→A is not less than 3 ×10⁻⁶ cm/s, otherwise N

Known results for compounds:
Cc1cncc(-n2c(=O)[nH]/c(=N\c3cc4cn(C)nc4cc3Cl)n(Cc3cc(Cl)c(F)cc3Oc3ccc(C#N)c(F)c3)c2=O)c1 = N
COCCOc1cncc(-n2c(=O)[nH]/c(=N\c3cc4cn(C)nc4cc3Cl)n(Cc3cc(Cl)c(F)cc3F)c2=O)c1 = Y

Ask | Quick check: does COCCOc1cncc(-n2c(=O)[nH]/c(=N\c3cc4cn(C)nc4cc3Cl)n(Cc3cc(C#N)ccc3C)c2=O)c1 have Papp B→A greater than or equal to 3 ×10⁻⁶ cm/s?
Reply | Y
